System: ornithine decarboxylase (ODC)
Test: ODC activity in treated L1210 cells
Format: cell-based, murine
Settings: L1210, 1 μM at 4 hours
Where a name gives a salt, the structure may show the parent alone.
measured quantity: ODC activity, percent of untreated control

>  <compound>
CNCCCCCNCCCCCNC [DM(5,5), Trihydrochloride]

>  <result>
105% of untreated control

$$$$
>  <compound>
CCNCCCCNCCCNCC [DESPD, Trihydrochloride]

>  <result>
30% of untreated control

$$$$
>  <compound>
CCNCCCCNCCCCNCC [DEHSPD, Trihydrochloride]

>  <result>
47% of untreated control

$$$$
>  <compound>
NCCCCCNCCCCCN [5,5-Triamine, 1,7,13-Triazatridecane Trihydrochloride]

>  <result>
16% of untreated control

$$$$

* * *

Test system: L1210 cells
Assay: Polyamine pool analysis in L1210 cells
Type: cell-based, murine
Conditions: intracellular amount; 100 μM, 48 hours
Counter-ions that a name gives are not always drawn.

>  <compound>
CCCNCCCCCNCCCCNCCC [DP(4,5), 4,9,15-Triazaoctadecane Trihydrochloride]

>  <assayed system>
L1210 cells

>  <Analogue [nmol/10^6 cells]>
1.40

$$$$
>  <compound>
CCCNCCCNCCCNCCC [DPNSPD, Trihydrochloride]

>  <assayed system>
L1210 cells

>  <Analogue [nmol/10^6 cells]>
0.49

$$$$
>  <compound>
CCNCCCCNCCCN [MESPD(N8), N^8-Ethylspermidine Trihydrochloride]

>  <assayed system>
L1210 cells

>  <Analogue [nmol/10^6 cells]>
4.41

$$$$
>  <compound>
NCCCCCNCCCCN [4,5-Triamine, 1,6,12-Triazadodecane Trihydrochloride]

>  <assayed system>
L1210 cells

>  <Analogue [nmol/10^6 cells]>
3.02

$$$$
>  <compound>
CCCNCCCNCCCCN [MPSPD(N1), N^1-Propylspermidine Trihydrochloride]

>  <assayed system>
L1210 cells

>  <Analogue [nmol/10^6 cells]>
3.97

$$$$
>  <compound>
CNCCCNCCCNC [DMNSPD, Trihydrochloride]

>  <assayed system>
L1210 cells

>  <Analogue [nmol/10^6 cells]>
5.00

$$$$
>  <compound>
CCCNCCCCNCCCCN [MPHSPD, Trihydrochloride]

>  <assayed system>
L1210 cells

>  <Analogue [nmol/10^6 cells]>
5.16

$$$$
>  <compound>
CCNCCCNCCCCN [MESPD(N1), N^1-Ethylspermidine Trihydrochloride]

>  <assayed system>
L1210 cells

>  <Analogue [nmol/10^6 cells]>
4.20

$$$$
>  <compound>
CCNCCCNCCCNCC [DENSPD, Trihydrochloride]

>  <assayed system>
L1210 cells

>  <Analogue [nmol/10^6 cells]>
3.67

$$$$
>  <compound>
NCCCCNCCCCN [HSPD, Homospermidine Trihydrochloride]

>  <assayed system>
L1210 cells

>  <Analogue [nmol/10^6 cells]>
3.58

$$$$

* * *

# reported SSAT activity, percent of untreated control; entries follow
Tested on: spermidine/spermine acetyltransferase (SSAT)
Experiment: SSAT activity in treated L1210 cells
Format: cell-based, murine
Details: L1210, 10 μM at 48 hours (triamine analogues)
Where a name gives a salt, the structure may show the parent alone.
measured quantity: SSAT activity, percent of untreated control

>  <compound>
CCNCCCNCCCNCC [DENSPD, Trihydrochloride]

>  <result>
780% of untreated control

$$$$
>  <compound>
NCCCCCNCCCCCN [5,5-Triamine, 1,7,13-Triazatridecane Trihydrochloride]

>  <result>
90% of untreated control

$$$$
>  <compound>
NCCCCNCCCCN [HSPD, Homospermidine Trihydrochloride]

>  <result>
430% of untreated control

$$$$
>  <compound>
CCCNCCCNCCCN [MPNSPD, N^1-Propylnorspermidine Trihydrochloride]

>  <result>
470% of untreated control

$$$$
>  <compound>
CCNCCCCNCCCNCC [DESPD, Trihydrochloride]

>  <result>
1380% of untreated control

$$$$
>  <compound>
CCCNCCCCNCCCCNCCC [DPHSPD, Trihydrochloride]

>  <result>
420% of untreated control

$$$$
>  <compound>
CCCNCCCCCNCCCCCNCCC [DP(5,5), Trihydrochloride]

>  <result>
90% of untreated control

$$$$
>  <compound>
CCCNCCCCNCCCNCCC [DPSPD, Trihydrochloride]

>  <result>
1030% of untreated control

$$$$
>  <compound>
CCNCCCCNCCCCNCC [DEHSPD, Trihydrochloride]

>  <result>
640% of untreated control

$$$$
>  <compound>
CCNCCCNCCCN

>  <result>
390% of untreated control

$$$$
>  <compound>
CNCCCCCNCCCCCNC [DM(5,5), Trihydrochloride]

>  <result>
90% of untreated control

$$$$
>  <compound>
NCCCNCCCN [NSPD, N—(3-aminopropyl)-1,3-propanediamine, reference compound]

>  <result>
150% of untreated control

$$$$
>  <compound>
CCCNCCCNCCCCN [MPSPD(N1), N^1-Propylspermidine Trihydrochloride]

>  <result>
1200% of untreated control

$$$$
>  <compound>
CNCCCNCCCNC [DMNSPD, Trihydrochloride]

>  <result>
250% of untreated control

$$$$
>  <compound>
NCCCCCNCCCCN [4,5-Triamine, 1,6,12-Triazadodecane Trihydrochloride]

>  <result>
410% of untreated control

$$$$

* * *

Tested on: polyamine transport apparatus
Test: Competitive uptake determination: inhibition of [3H]spermidine transport into L1210 cells
Format: cell-based, murine
Settings: analogue inhibition of spermidine transport
Counter-ions that a name gives are not always drawn.

>  <compound>
CNCCCCCNCCCCCNC [DM(5,5), Trihydrochloride]

>  <assayed system>
polyamine transport apparatus

>  <Ki [µM]>
133

$$$$
>  <compound>
CCCNCCCCNCCCN [MPSPD(N8), N^8-Propylspermidine Trihydrochloride]

>  <assayed system>
polyamine transport apparatus

>  <Ki [µM]>
8.5

$$$$
>  <compound>
NCCCCNCCCCN [HSPD, Homospermidine Trihydrochloride]

>  <assayed system>
polyamine transport apparatus

>  <Ki [µM]>
3.4

$$$$
>  <compound>
CCCNCCCCNCCCCNCCC [DPHSPD, Trihydrochloride]

>  <assayed system>
polyamine transport apparatus

>  <Ki [µM]>
67

$$$$
>  <compound>
NCCCCCNCCCCCN [5,5-Triamine, 1,7,13-Triazatridecane Trihydrochloride]

>  <assayed system>
polyamine transport apparatus

>  <Ki [µM]>
13.8

$$$$
>  <compound>
CNCCCCCNCCCCNC [DM(4,5), Trihydrochloride]

>  <assayed system>
polyamine transport apparatus

>  <Ki [µM]>
21

$$$$
>  <compound>
CCNCCCCNCCCN [MESPD(N8), N^8-Ethylspermidine Trihydrochloride]

>  <assayed system>
polyamine transport apparatus

>  <Ki [µM]>
7

$$$$
>  <compound>
CCNCCCNCCCNCC [DENSPD, Trihydrochloride]

>  <assayed system>
polyamine transport apparatus

>  <Ki [µM]>
250

$$$$
>  <compound>
CNCCCNCCCNC [DMNSPD, Trihydrochloride]

>  <assayed system>
polyamine transport apparatus

>  <Ki [µM]>
60

$$$$
>  <compound>
NCCCNCCCN [NSPD, N—(3-aminopropyl)-1,3-propanediamine, reference compound]

>  <assayed system>
polyamine transport apparatus

>  <Ki [µM]>
7.2

$$$$
>  <compound>
CNCCCCNCCCCNC [DMHSPD, Trihydrochloride]

>  <assayed system>
polyamine transport apparatus

>  <Ki [µM]>
5.5

$$$$
>  <compound>
CNCCCCNCCCNC [DMSPD, Trihydrochloride]

>  <assayed system>
polyamine transport apparatus

>  <Ki [µM]>
5.1

$$$$

* * *

Tested on: L1210 cells
Experiment: Metabolic transformation of polyamine analogues by L1210 cells
Format: in vitro ADME, murine
Settings: 48 hours, 100 μM analogue
Counter-ions that a name gives are not always drawn.
Parent drug as % of total drug in the cell values for the molecules below.
measured quantity: Parent drug as % of total drug in the cell (%)

>  <molecule>
CCNCCCCNCCCN [MESPD(N8), N^8-Ethylspermidine Trihydrochloride]

>  <result number>
99.4

$$$$
>  <molecule>
CNCCCNCCCNC [DMNSPD, Trihydrochloride]

>  <result number>
100

$$$$
>  <molecule>
CCNCCCNCCCN [MENSPD, monoethylnorspermidine]

>  <result number>
78.2

$$$$
>  <molecule>
CCNCCCCNCCCCNCCCCNCC [DEHSPM, N^1,N^14-diethylhomospermine]

>  <result number>
100

$$$$
>  <molecule>
CCNCCCNCCCCN [MESPD(N1), N^1-Ethylspermidine Trihydrochloride]

>  <result number>
96.3

$$$$
>  <molecule>
CCCNCCCCNCCCN [MPSPD(N8), N^8-Propylspermidine Trihydrochloride]

>  <result number>
99.3

$$$$
>  <molecule>
CCNCCCCNCCCNCC [DESPD, Trihydrochloride]

>  <result number>
96.3

$$$$
>  <molecule>
CCCNCCCNCCCN [MPNSPD, N^1-Propylnorspermidine Trihydrochloride]

>  <result number>
94.3

$$$$
